Recorded values, source PubChem BioAssay (NCI).

# System: UACC-62 melanoma
# EXPERIMENT: NCI-60 one-dose screen, 48 h (100 = growth as untreated, 0 = no growth, -100 = all killed)
# CONDITION_NOTES: 10 µM unless noted
The panel holds about 83,000 compounds, 20% with a hit somewhere; the sample as a whole holds those more often. Calls of active or inactive are those of the source. Rule for the calls: active = growth percent below 10; inactive = the rest.
// growth lookup, one value per entry

Example molecules with recorded growth:
MOLECULE: COc1cc(C(=O)OCCCCCCCCCCC[P+](c2ccccc2)(c2ccccc2)c2ccccc2)ccc1O
growth: -16% (active)
--
MOLECULE: COc1cc(OC)c(C(=O)/C=C/c2cccc(C(F)(F)F)c2)c(OC)c1
growth: -12.1% (active)
--
MOLECULE: COc1ccc(-n2cnc3c(sc4ncc(Cl)cc43)c2=O)cc1
growth: 109% (inactive)
--
MOLECULE: N#Cc1ccc(NC(=O)c2ccc3cccnc3c2O)cc1
growth: 9.43% (active)
--
MOLECULE: CNC(=O)Cc1nc(-c2cccc(NS(=O)(=O)c3c(F)cccc3F)c2F)c(-c2ccnc(Nc3ccccc3)n2)s1
growth: 5.51% (active)

Incoming: Entry CCCCCC/C=C\CCCCCCCCOc1ccc(CCOP(=O)(O)OCC[N+](C)(C)C)cc1 , system UACC-62 melanoma: what growth was measured?
Outgoing: 71.1% (inactive)

Incoming: Queued: CC/C=C\C[C@H]1C/C=C2/C(=O)C(Cl)=C[C@@H]2C/C=C\CCCC(=O)O1
Outgoing: -53.1% (active)

Incoming: Queued: OC1CC2c3ccccc3C1c1ccccc12 (stereo not given)
Outgoing: 103% (inactive)

Incoming: Queued: Clc1nc(-c2cccnc2)nc2sc3c(c12)CCCCCC3
Outgoing: 91.3% (inactive)

Incoming: Queued: COc1cc(OC)c(C(=O)/C=C/c2ccc(C#N)cc2)c(OC)c1
Outgoing: 26.5% (inactive)

====

# Tested on: A498 renal
# EXPERIMENT: NCI-60 one-dose screen, 48 h (100 = growth as untreated, 0 = no growth, -100 = all killed)
# CONDITION_NOTES: 10 µM unless noted
The panel holds about 83,000 compounds, 20% with a hit somewhere; the sample as a whole holds those more often.
// growth lookup, one value per entry
Answer format: numeric, % implied, no suffix.

Example molecules with recorded growth:
MOLECULE: NC(CC(N)C(=O)O)C(=O)O (stereo not given)
EXPERIMENTAL_READOUT: growth
QUANTITY_UNIT: %
OBSERVED: 108

MOLECULE: CC1CCc2c(sc(NC(=O)CSc3nnc4ccccn34)c2C(N)=O)C1 (stereo not given)
EXPERIMENTAL_READOUT: growth
QUANTITY_UNIT: %
OBSERVED: 133

Incoming: Find the recorded growth belonging to CCSc1nnc(Nc2ccc(C(C)C)cc2)s1 and report it.
Outgoing: 111

Incoming: Queued: O=C1CCCCC=C1C[N+](=O)[O-]
Outgoing: 117

Incoming: Queued: CCCCCCCCCCC/C=C\C[C@H](O)C/C=C1/C(=O)C=C[C@@H]1C/C=C\CCCC(=O)OC
Outgoing: 99.7

Incoming: Queued: Cc1cc(Nc2nc(C(=O)Nc3ccccc3)nc3ccccc23)n[nH]1
Outgoing: -1.3

Incoming: Queued: Oc1ccc(Cl)cc1-c1cc(-c2ccc(Cl)cc2)n[nH]1
Outgoing: 84.3

Incoming: Queued: Cn1cc(C=O)c2ccccc21
Outgoing: 95.4

Incoming: Queued: Cc1ccc(C(=O)c2sc3nc4c(cc3c2N)CCCC4)c(C)c1
Outgoing: -10.8

Incoming: Queued: Cc1ccc2nc(-c3c(CCCO)noc3N)[nH]c(=O)c2c1
Outgoing: 104
